What Calcemic Activity (%) was measured for each of the following?
Experiment: Calcemic activity in rats, serum calcium after 7 days oral gavage
Format: in vivo, LEW/MOL female rats
Conditions: potency relative to 1α,25(OH)2 D3, rats, p.o. 7 days
Your answer should be a plain number; it is taken to be in %.

Ask: Query (compound): C=C1/C(=C\C=C2/CCC[C@]3(C)[C@@H]([C@H](C)/C=C/C#CC(O)(CC)CC)CC[C@@H]23)C[C@@H](O)C[C@@H]1O [Compound (E)] ; field requested: Calcemic Activity (%)
Result: 20

Ask: Query (compound): C=C1/C(=C\C=C2/CCC[C@]3(C)[C@@H]([C@@H](C)COc4cccc(C(C)(C)O)c4)CC[C@@H]23)C[C@@H](O)C[C@@H]1O ; field requested: Calcemic Activity (%)
Result: 8

Ask: Query (compound): C=C1/C(=C\C=C2/CCC[C@]3(C)[C@@H]([C@@H](C)CSc4cccc(C(C)(C)O)c4)CC[C@@H]23)C[C@@H](O)C[C@@H]1O ; field requested: Calcemic Activity (%)
Result: 1

Ask: Query (compound): C=C1/C(=C\C=C2/CCC[C@]3(C)[C@@H]([C@H](C)CCCC(C)(C)O)CC[C@@H]23)C[C@@H](O)C[C@@H]1O [1α,25(OH)2 D3, 1,25-dihydroxy vitamin D3, reference compound] ; field requested: Calcemic Activity (%)
Result: 100

Ask: Query (compound): C=C1/C(=C\C=C2/CCC[C@]3(C)[C@@H]([C@H](C)CCCCC(O)(CC)CC)CC[C@@H]23)C[C@@H](O)C[C@@H]1O ; field requested: Calcemic Activity (%)
Result: 20
